Source of measurements: patent US20100173943A1

# System: cotton aphid (Aphis gossypii)
# assay protocol: Aphis gossypii test (APHIGO spray treatment)
# Format: in vivo
# setup conditions: 4 ppm a.i. + AMS and RME 1000 ppm each; cotton leaves sprayed; 6 days
measured parameter: Kill in % after 6 days +AMS + RME

Before answering, review these 4 worked examples.
compound: O=C1C=C(N(Cc2ccc(F)nc2)C2CC2)CO1 [Compound I-22]
study target: cotton aphid (Aphis gossypii)
measured: 65%

compound: O=C1C=C(N(Cc2cnc(Cl)c(F)c2)C2CC2)CO1 [Compound I-13]
study target: cotton aphid (Aphis gossypii)
measured: 75%

compound: C#CCN(Cc1ccc(Cl)nc1)C1=CC(=O)OC1 [Compound I-33]
study target: cotton aphid (Aphis gossypii)
measured: 15%

compound: CN(Cc1cccnc1)C1=CC(=O)OC1 [Compound I-21]
study target: cotton aphid (Aphis gossypii)
measured: 45%

Alright, here's another compound for you.
Enquiry: Which Kill in % after 6 days +AMS + RME reading was recorded for the compound O=C1C=C(N(CCF)Cc2cnc(Cl)s2)CO1 [Compound I-4] ?
Return: 85%

====

// reported Kill in % after 6 days +AMS + RME for each item listed
# Tested on: green peach aphid (Myzus persicae)
# assay protocol: Myzus persicae test (MYZUPE)
# Type: in vivo
# setup conditions: 4 ppm a.i. + AMS and RME 1000 ppm each; pepper plants sprayed; 6 days
Numeric only. Scale: %

Solved cases (5 shown):
molecule: O=C1C=C(N(CCF)Cc2cnc(Cl)c(Cl)c2)CO1
measured: 95

molecule: O=C1C=C(N(Cc2ccc(F)nc2)C2CC2)CO1
measured: 80

molecule: CN(Cc1ccc(Cl)nc1)C1=CC(=O)CCC1
measured: 70

molecule: O=C1C=C(N(CCF)Cc2cnc(Cl)s2)CO1
measured: 100

molecule: O=C1C=C(N(CCF)Cc2ccc(Cl)nc2)CO1
measured: 100

Would you kindly look at the next entry?
Enquiry: Please report the recorded Kill in % after 6 days +AMS + RME for `C=CCN(Cc1ccc(Cl)nc1)C1=CC(=O)OC1` .
Return: 80

====

# Tested on: cotton aphid (Aphis gossypii)
# assay protocol: Aphis gossypii test (APHIGO spray treatment)
# Format: in vivo
# setup conditions: 20 ppm a.i. + ammonium sulphate 1000 ppm; cotton leaves sprayed; 6 days
Mark each entry Satisfied if its Kill in % after 6 days +AMS sits below 80%, and Not satisfied for all others.

Sample answers from the record:
compound: O=C1C=C(NCc2ccc(Cl)nc2)CCC1 [Compound I-37]
group: Satisfied
--
compound: C#CCN(Cc1ccc(Cl)nc1)C1=CC(=O)CCC1 [Compound I-36]
group: Satisfied
--
compound: CN(Cc1ccc(Cl)nc1)C1=C(F)C(=O)OC1 [Compound I-28]
group: Not satisfied
--
compound: C=CCN(Cc1ccc(Cl)nc1)C1=CC(=O)OC1 [Compound I-32]
group: Not satisfied
--
compound: O=C1C=C(N(Cc2ccc(C(F)(F)F)nc2)C2CC2)CO1 [Compound I-24]
group: Not satisfied

In the following, a different compound is considered.
Enquiry: Please indicate whether the reported Kill in % after 6 days +AMS of CCN(Cc1ccc(Cl)nc1)C1=CC(=O)OC1 [Compound I-30] is strictly below 80%.
Return: Not satisfied

====

# Tested on: cotton aphid (Aphis gossypii)
# assay protocol: Aphis gossypii test (APHIGO spray treatment)
# Format: in vivo
# setup conditions: 4 ppm a.i. + AMS and RME 1000 ppm each; cotton leaves sprayed; 6 days
measured parameter: Kill in % after 6 days +AMS + RME (%)
Respond with the bare value in %.

Example cases with answers are listed next.
compound: O=C1C=C(N(Cc2ccc(Cl)nc2)C2CC2)CC1
Kill in % after 6 days +AMS + RME [%]: 80

compound: O=C1C=C(N(Cc2cnc(Br)c(F)c2)C2CC2)CO1
Kill in % after 6 days +AMS + RME [%]: 75

compound: CC1OC(=O)C=C1N(C)Cc1ccc(Cl)nc1 (stereo not shown)
Kill in % after 6 days +AMS + RME [%]: 100

compound: O=C1C=C(N(Cc2cnc(Br)c(F)c2)CC(F)F)CO1
Kill in % after 6 days +AMS + RME [%]: 90

compound: CON(Cc1ccc(Cl)nc1)C1=CC(=O)OC1
Kill in % after 6 days +AMS + RME [%]: 75

Enquiry: Quick check: Kill in % after 6 days +AMS + RME on cotton aphid (Aphis gossypii), item `CN(Cc1cnc(Cl)c(Cl)c1)C1=CC(=O)OC1` ?
Return: 99

Enquiry: Request: Kill in % after 6 days +AMS + RME, test system cotton aphid (Aphis gossypii), entry `CN(Cc1ccc(Cl)nc1)C1=C(F)C(=O)OC1`
Return: 80

====

# Test system: cotton aphid (Aphis gossypii)
# assay protocol: Aphis gossypii test (APHIGO spray treatment)
# Type: in vivo
# setup conditions: 4 ppm a.i. + ammonium sulphate 1000 ppm; cotton leaves sprayed; 6 days
One threshold, 60%, splits the recorded Kill in % after 6 days +AMS values: lower ones are class 1, equal or higher ones are class 0.

Recorded results for 4 compounds are shown here.
structure notation: CON(Cc1ccc(Cl)nc1)C1=CC(=O)OC1
group: class 0
//
structure notation: CN(Cc1cnc(Cl)c(Cl)c1)C1=CC(=O)OC1
group: class 0
//
structure notation: O=C1C=C(N(Cc2ccc(Cl)nc2)C2CC2)CC1
group: class 1
//
structure notation: O=C1C=C(N(Cc2cnc(Cl)c(F)c2)C2CC2)CO1
group: class 0

Enquiry: Does this compound meet the criterion Kill in % after 6 days +AMS < 60%? `CN(Cc1cccnc1)C1=CC(=O)OC1`
Return: class 1

Enquiry: Hello, I'm reviewing records and need to know if Kill in % after 6 days +AMS of `O=C1C=C(N(Cc2cnc(Br)c(F)c2)C2CC2)CO1` is below 60%. Could you check?
Return: class 0

Enquiry: For this compound, is Kill in % after 6 days +AMS lower than 60%? `C#CCN(Cc1ccc(Cl)nc1)C1=CC(=O)OC1`
Return: class 1

Enquiry: Is the reported Kill in % after 6 days +AMS for `O=C1C=C(N(Cc2ccc(F)nc2)C2CC2)CO1` strictly below 60%?
Return: class 0

Enquiry: Does this compound meet the criterion Kill in % after 6 days +AMS < 60%? `O=C1C=C(N(CCF)Cc2cnc(Cl)s2)CO1`
Return: class 1

Enquiry: Please state whether Kill in % after 6 days +AMS is below 60% for `O=C1C=C(N(Cc2cnc(Br)c(F)c2)CC(F)F)CO1`
Return: class 0

====

# Tested on: cotton aphid (Aphis gossypii)
# assay protocol: Aphis gossypii test (APHIGO spray treatment)
# Format: in vivo
# setup conditions: 0.8 ppm a.i. + ammonium sulphate 1000 ppm; cotton leaves sprayed; 6 days
Labels assigned by Kill in % after 6 days +AMS range: bottom bin = under 20%, middle bin = from 20% up to 60%, top bin = 60% and over

Enquiry: Could you place `CN(Cc1ccc(C(F)(F)F)nc1)C1=CC(=O)OC1` in its proper category? Many thanks.
Return: bottom bin

Enquiry: Which Kill in % after 6 days +AMS band matches `O=C1C=C(N(Cc2cnc(Br)c(F)c2)C2CC2)CO1` ?
Return: bottom bin

====

Below, each entry is listed alongside its reported Kill in % after 6 days +AMS + RME.
# Test system: cotton aphid (Aphis gossypii)
# assay protocol: Aphis gossypii test (APHIGO spray treatment)
# Format: in vivo
# setup conditions: 0.8 ppm a.i. + AMS and RME 1000 ppm each; cotton leaves sprayed; 6 days
Write the number in % without appending the unit.

Below, 3 compounds whose answers are already recorded.
structure notation: CN(Cc1ccc(Br)nc1)C1=CC(=O)OC1
study target: cotton aphid (Aphis gossypii)
measured: 98

structure notation: O=C1C=C(N(CCF)Cc2ccc(Cl)nc2)CO1
study target: cotton aphid (Aphis gossypii)
measured: 70

structure notation: O=C1C=C(N(Cc2cnc(Br)c(F)c2)CC(F)F)CO1
study target: cotton aphid (Aphis gossypii)
measured: 5

Kindly consider the entry below.
Enquiry: # input compound: `O=C1C=C(N(Cc2cnc(Br)c(F)c2)C2CC2)CO1` ; wanted: its Kill in % after 6 days +AMS + RME
Return: 25

====

Reported Kill in % after 6 days +AMS + RME values follow for various molecules
# System: green peach aphid (Myzus persicae)
# assay protocol: Myzus persicae test (MYZUPE)
# Format: in vivo
# setup conditions: 4 ppm a.i. + AMS and RME 1000 ppm each; pepper plants sprayed; 6 days
// note: answer is a bare numeric in %

Examples with answers:
molecule: O=C1C=C(N(Cc2cnc(Cl)c(F)c2)CC(F)F)CO1
unit info: %
measured: 100

molecule: O=C1C=C(N(Cc2cnc(Cl)c(Cl)c2)C2CC2)CO1
unit info: %
measured: 70

molecule: CN(Cc1ccc(Cl)nc1)C1=C(F)C(=O)OC1
unit info: %
measured: 95

molecule: O=C1C=C(N(Cc2ccc(F)nc2)CC(F)F)CO1
unit info: %
measured: 100

molecule: CC1OC(=O)C=C1N(C)Cc1ccc(Cl)nc1 (stereo not shown)
unit info: %
measured: 55

The record that follows has no Kill in % after 6 days +AMS + RME shown yet.
Enquiry: Request the reported Kill in % after 6 days +AMS + RME associated with `O=C1C=C(N(Cc2ccc(C(F)(F)F)nc2)C2CC2)CO1`
Return: 75
